Molecular target: TIM-3 (antigen; species and construct not stated for the assay) (UniProt Q8TDQ0 22-202, limits assumed)
Test: SPR (Biacore), run of May 30, 2014
REPORTED PROPERTY: pKd
Note on pKd: it is the negative log10 of concentration, concentration in mol/L.

Lookup: Specify measured pKd for ABTIM3-hum02 (antibody, human IgG4 S228P, kappa, V domains shown, Humanized) VH: QVQLVQSGAEVKKPGASVKVSCKASGYTFTSYNMHWVRQAPGQGLEWIGDIYPGSGDTSYNQKFKGRATMTADKSTSTVYMELSSLRSEDTAVYYCARVGGAFPMDYWGQGTLVTVSS VL: DIVLTQSPDSLAVSLGERATINCRASESVEYYGTSLMQWYQQKPGQPPKLLIYAASNVESGVPDRFSGSGSGTDFTLTISSLQAEDVAVYYCQQSRKDPSTFGGGTKVEIKR .
Found: 9.76
